# System: S. aureus ATCC 33591 (MRSA)
# Assay type: cell-based, Staphylococcus aureus
# conditionContext: ATCC 33591, 18 h
Where a SMILES comes first, the peptide text is derived from it. The star is where a group is joined. Octanoyl = CCCCCCCC(=O)*
measuredAttribute: MIC S. aureus 33591
Returns: string containing the number followed by the unit.

Asked: Which value of MIC S. aureus 33591 has been reported for CCCCCCCC(=O)N[C@@H](CCCNC(=N)N)C(=O)N[C@@H](CC(C)C)C(=O)N[C@@H](Cc1ccccc1)C(=O)N[C@@H](CC(=O)O)C(=O)N[C@@H](CCCCN)C(=O)N[C@H](C(=O)N[C@@H](CCCNC(=N)N)C(=O)N[C@@H](CCC(N)=O)C(=O)N[C@H](C(=O)N[C@H](C(=O)N[C@@H](CCCNC(=N)N)C(=O)N[C@@H](CCCCN)C(N)=O)[C@@H](C)CC)C(C)C)[C@@H](C)CC [XII, C8^α-retro-KR12-NH2] (Octanoyl-RLFDKIRQVIRK-NH2) in the records?
Given back: 32 µg/mL

###

Below, each entry is listed alongside its reported MIC S. aureus 9144.
# System: S. aureus ATCC 9144
# Type: cell-based, Staphylococcus aureus
# conditionContext: ATCC 9144, 18 h
Where a SMILES comes first, the peptide text is derived from it. The star is where a group is joined. Octanoyl = CCCCCCCC(=O)*
Number only, in µg/mL; omit the unit.

compound="CCCCCCCC(=O)N[C@@H](CCCCN)C(=O)N[C@@H](CCCCN)C(=O)N[C@@H](CCCNC(=N)N)C(=O)N[C@H](C(=O)N[C@H](C(=O)N[C@@H](CCC(N)=O)C(=O)N[C@@H](CCCNC(=N)N)C(=O)N[C@H](C(=O)N[C@@H](CCCCN)C(=O)N[C@@H](CC(=O)O)C(=O)N[C@@H](Cc1ccccc1)C(=O)N[C@@H](CC(C)C)C(=O)N[C@@H](CCCNC(=N)N)C(N)=O)[C@@H](C)CC)C(C)C)[C@@H](C)CC [IV, C8^α-Lys-KR12-NH2] (Octanoyl-KKRIVQRIKDFLR-NH2)" targetentity="S. aureus ATCC 9144" measuredattribute="MIC S. aureus 9144" resultunits=µg/mL experimentalvalue=16

Asked: # get_value(readout= MIC S. aureus 9144, system= S. aureus ATCC 9144) for CCCCCCCC(=O)NCCCC[C@H](NC(=O)[C@H](CCCNC(=N)N)NC(=O)[C@H](CC(C)C)NC(=O)[C@H](Cc1ccccc1)NC(=O)[C@H](CC(=O)O)NC(=O)[C@H](CCCCN)NC(=O)[C@@H](NC(=O)[C@H](CCCNC(=N)N)NC(=O)[C@H](CCC(N)=O)NC(=O)[C@@H](NC(=O)[C@@H](NC(=O)[C@H](CCCNC(=N)N)NC(=O)[C@@H](N)CCCCN)[C@@H](C)CC)C(C)C)[C@@H](C)CC)C(N)=O [VI, KR12-Lys^ε(C8)-NH2] (H-KRIVQRIKDFLRK(Octanoyl)-NH2)
Given back: 32

###

# Tested on: Klebsiella aerogenes ATCC 13048
# Format: cell-based
# conditionContext: ATCC 13048, 18 h
Where a SMILES comes first, the peptide text is derived from it. The star is where a group is joined. Octanoyl = CCCCCCCC(=O)*
measuredAttribute: MIC K. aerogenes (µg/mL)
Your answer should be a plain number; it is taken to be in µg/mL.

Asked: Requested read-out: MIC K. aerogenes. Entry: CCCCCCCC(=O)NCCCC[C@H](NC(=O)[C@H](CC(C)C)NC(=O)[C@H](Cc1ccccc1)NC(=O)[C@H](CC(=O)O)NC(=O)[C@H](CCCCN)NC(=O)[C@@H](NC(=O)[C@H](CCCNC(=N)N)NC(=O)[C@H](CCC(N)=O)NC(=O)[C@@H](NC(=O)[C@@H](NC(=O)[C@H](CCCNC(=N)N)NC(=O)[C@@H](N)CCCCN)[C@@H](C)CC)C(C)C)[C@@H](C)CC)C(N)=O [VII, [Lys^ε(C8)]^12KR12-NH2] (H-KRIVQRIKDFLK(Octanoyl)-NH2)
Given back: 64
